meta.source: patent US5196547A

pIC50: −log10 of the molar value.
# pIC50 measurements, system: 5-HT3 receptor (Rattus norvegicus, UniProt P35563)
# Sequence (P35563 24-483): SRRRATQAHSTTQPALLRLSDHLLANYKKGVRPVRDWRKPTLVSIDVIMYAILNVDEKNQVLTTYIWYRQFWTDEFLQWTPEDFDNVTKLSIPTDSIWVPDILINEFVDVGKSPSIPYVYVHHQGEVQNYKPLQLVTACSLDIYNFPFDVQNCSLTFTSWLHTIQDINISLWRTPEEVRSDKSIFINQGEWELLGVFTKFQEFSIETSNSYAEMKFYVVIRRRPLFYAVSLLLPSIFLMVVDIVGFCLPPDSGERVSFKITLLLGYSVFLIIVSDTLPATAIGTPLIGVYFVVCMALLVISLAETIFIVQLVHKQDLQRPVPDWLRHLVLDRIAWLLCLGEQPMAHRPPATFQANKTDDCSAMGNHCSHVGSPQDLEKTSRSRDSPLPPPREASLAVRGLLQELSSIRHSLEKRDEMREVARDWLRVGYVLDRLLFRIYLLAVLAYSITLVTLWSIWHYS
READOUT_KIND: pIC50

INSERT INTO assay_data (molecule, readout_kind, reading) VALUES
  ('COc1cc(N)c(Cl)cc1C(=O)NC1CN2CCC1CC2 (stereo not drawn) [Zacopride]', 'pIC50', 9.26),
  ('c1ccc2nc(N3CCNCC3)ccc2c1', 'pIC50', 9.30),
  ('COc1ccc2[nH]cc(C3=CCNCC3)c2c1', 'pIC50', 6.49);
